src = the NIST ThermoML archive (doi:10.1021/je060139a)

# Assay Method Text: refractive index (Na D-line) (dimensionless); xn = mol fraction of the nth substance listed
# Setup Conditions: 318.15 K; 100.5 kPa; Liquid; Standard Abbe refractometry; x1 = 0.1
± gives the expanded uncertainty stated by the source.
Result Type: refractive index

GET /values?readout=refractive index&item= CCOC(=O)c1ccccc1O [ethyl 2-hydroxybenzoate] + CCO
1.38739 ± 0.00032

GET /values?readout=refractive index&item= CCOC(=O)CC(C)=O [ethyl 3-oxobutanoate] + CCO
1.3625 ± 0.0003

GET /values?readout=refractive index&item= CCC(=O)OCc1ccccc1 [benzyl propanoate] + CCO
1.38322 ± 0.00032

GET /values?readout=refractive index&item= CC(=O)OCc1ccccc1 [benzyl ethanoate] + CCO
1.38161 ± 0.00032

GET /values?readout=refractive index&item= CCOC(=O)CC(C)C [ethyl 3-methylbutanoate] + CCO
1.35888 ± 0.00032

GET /values?readout=refractive index&item= COC(=O)c1ccccc1 [methyl benzoate] + CCO
1.38191 ± 0.00032
